Target: Steroidogenic factor 1 (Homo sapiens)
Assay: SF1 (NR5A1) inverse agonists, counter-screen for LRH-1 inverse agonist project, cell-based, luminescence, high throughput (AID 651614);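 note: cells cotransfected with StAR promoter reporter and SF1 expression vector; 0% = vehicle on cells with receptor and 100% = vehicle on cells lacking receptor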
Settings: cell-based SF1 luciferase reporter, at 3.6 µM, hits give high values

| Compound | inhibition (%) |
| --- | --- |
| O=c1c2ccccc2ncn1Cc1ccco1 | 18.4 |
| Cc1ccc(Cl)cc1N1CCN(C(=O)C(C)n2ncn3cccc3c2=O)CC1 (stereo not given) | 41.2 |
| CCC1C/C(=C\c2cccnc2)C(=O)/C(=C/c2cccnc2)C1 (stereo not given) | 97.7 |
| COc1ccc(CNC(=O)c2cccc3c(-c4cccc(C(N)=O)c4)coc23)cc1OC | 68.7 |
| Nc1ccc(-c2cc3ccccc3oc2=O)cc1 | 65.2 |
| O=C(N/N=C/c1ccc([N+](=O)[O-])s1)c1ccccc1Br | 65.3 |
| O=C(Nc1ccc2[nH]c(=O)[nH]c2c1)c1ccc([N+](=O)[O-])o1 | 65.8 |
| Cc1ccc(NC(=O)COC(=O)CCC2CCCC2)c(Br)c1 | 46.2 |
| CCOc1ccc(NC(=O)CSc2nccn(-c3ccc4c(c3)OCCO4)c2=O)cc1 | 60.7 |
| COc1ccc2c(c1)/C(=C/c1cc(OC)c(OC)c(OC)c1)C(=O)N2 | 48.2 |
| COc1ccc(CCNC(=O)COC(=O)c2cccn2C)cc1 | 46.3 |
| CC(=O)Nc1cc(-c2ccc(S(C)(=O)=O)cc2)cn2c(-c3ccc(F)c(Cl)c3)cnc12 | 51.7 |
| CCC(C)Nc1nc(-c2ccccn2)nc2ccccc12 (stereo not given) | 78.3 |
| O=C(COC(=O)c1cccc(O)c1)Nc1ccc(N2CCOCC2)cc1 | 54.6 |
| CC(C)(C)c1ccc(/C=N/Nc2ccc(C(=O)O)cc2)cc1 | -79.9 |

---

Target: Nuclear receptor coactivator 3 (Homo sapiens) (UniProt Q9Y6Q9)
Sequence (Q9Y6Q9 whole entry, looked up): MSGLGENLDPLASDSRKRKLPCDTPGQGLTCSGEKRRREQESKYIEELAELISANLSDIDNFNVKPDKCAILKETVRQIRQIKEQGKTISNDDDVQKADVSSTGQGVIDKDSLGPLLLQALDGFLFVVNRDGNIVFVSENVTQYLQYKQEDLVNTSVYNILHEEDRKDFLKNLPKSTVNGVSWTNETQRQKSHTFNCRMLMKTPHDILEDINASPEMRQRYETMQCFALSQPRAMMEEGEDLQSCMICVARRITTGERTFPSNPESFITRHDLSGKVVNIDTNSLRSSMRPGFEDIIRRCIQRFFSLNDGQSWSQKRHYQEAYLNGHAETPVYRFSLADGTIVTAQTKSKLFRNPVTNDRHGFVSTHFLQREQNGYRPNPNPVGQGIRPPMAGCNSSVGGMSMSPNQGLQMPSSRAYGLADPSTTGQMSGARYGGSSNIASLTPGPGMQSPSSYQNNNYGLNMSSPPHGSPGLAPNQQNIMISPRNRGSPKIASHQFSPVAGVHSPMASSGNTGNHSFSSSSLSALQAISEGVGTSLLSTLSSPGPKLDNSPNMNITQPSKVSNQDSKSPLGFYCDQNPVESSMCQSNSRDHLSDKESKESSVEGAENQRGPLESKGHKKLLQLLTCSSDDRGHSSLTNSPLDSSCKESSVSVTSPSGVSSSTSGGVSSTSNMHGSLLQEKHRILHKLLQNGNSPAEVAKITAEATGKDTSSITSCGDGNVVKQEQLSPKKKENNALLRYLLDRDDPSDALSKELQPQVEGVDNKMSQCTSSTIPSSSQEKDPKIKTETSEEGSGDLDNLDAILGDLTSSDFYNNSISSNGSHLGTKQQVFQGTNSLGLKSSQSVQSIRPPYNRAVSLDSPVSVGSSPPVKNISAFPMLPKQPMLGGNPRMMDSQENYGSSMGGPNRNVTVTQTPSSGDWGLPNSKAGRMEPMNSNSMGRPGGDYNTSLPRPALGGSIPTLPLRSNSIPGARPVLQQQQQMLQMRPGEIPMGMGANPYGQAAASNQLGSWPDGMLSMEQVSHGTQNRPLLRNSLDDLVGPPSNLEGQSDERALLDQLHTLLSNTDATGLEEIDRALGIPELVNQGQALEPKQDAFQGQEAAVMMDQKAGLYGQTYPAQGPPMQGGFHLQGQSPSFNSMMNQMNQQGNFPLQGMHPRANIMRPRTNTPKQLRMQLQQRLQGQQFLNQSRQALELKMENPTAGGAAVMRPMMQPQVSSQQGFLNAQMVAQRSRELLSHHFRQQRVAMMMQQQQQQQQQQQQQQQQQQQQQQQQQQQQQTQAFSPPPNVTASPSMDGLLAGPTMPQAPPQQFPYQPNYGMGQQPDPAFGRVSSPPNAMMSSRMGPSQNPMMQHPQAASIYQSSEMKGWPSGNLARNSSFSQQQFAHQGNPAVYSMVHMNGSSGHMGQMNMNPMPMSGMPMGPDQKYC
Assay: SRC3 coactivator transcriptional activity inhibitors, confirmation, cell-based, luminescence, quadruplicate (AID 588792);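 note: 0% = DMSO treated cells and 100% = gossypol at 36 µM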
Details: HEK293 GAL4-SRC3 luciferase reporter, at 3.6 µM
Calls of active or inactive are those of the source.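 Rule for the calls: active = mean inhibition over 43.08%, the solvent-only control mean plus 3 SD; inactive = the rest.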
Labels: active, inactive

| Compound | Target Desc | Class Name |
| --- | --- | --- |
| CN(C)CCCN1C(=O)c2cccc3c([N+](=O)[O-])ccc(c23)C1=O | Nuclear receptor coactivator 3 (Homo sapiens) (UniProt Q9Y6Q9) | inactive |
| O=C(NCCNc1ccc([N+](=O)[O-])cc1C(F)(F)F)c1cccc(F)c1 | Nuclear receptor coactivator 3 (Homo sapiens) (UniProt Q9Y6Q9) | inactive |
| COc1ccccc1NC(=S)NN=C(C)c1ccccn1 | Nuclear receptor coactivator 3 (Homo sapiens) (UniProt Q9Y6Q9) | inactive |
| CCN(CC)c1ccc(C(=C2C=CC(=[N+](CC)CC)C=C2)c2ccc(N(CC)CC)cc2)cc1 | Nuclear receptor coactivator 3 (Homo sapiens) (UniProt Q9Y6Q9) | active |
| Cc1ccc(C)c(S(=O)(=O)N2CCCCC2CCNC(=O)C(=O)NCc2ccncc2)c1 (stereo not given) | Nuclear receptor coactivator 3 (Homo sapiens) (UniProt Q9Y6Q9) | inactive |
| CN(C)c1ccc(C(=S)Nc2ccccc2)cc1 | Nuclear receptor coactivator 3 (Homo sapiens) (UniProt Q9Y6Q9) | inactive |
| Cc1ccc(NC(=O)CCC(=O)N/N=C/c2ccc(O)cc2O)cc1 | Nuclear receptor coactivator 3 (Homo sapiens) (UniProt Q9Y6Q9) | inactive |
| Cc1c([N+](=O)[O-])c2ccc(O)cc2n1-c1ccccc1 | Nuclear receptor coactivator 3 (Homo sapiens) (UniProt Q9Y6Q9) | active |
| CC[C@H]1CN2CCc3cc(OC)c(OC)cc3C2C[C@@H]1C[C@H]1NCCc2cc(OC)c(OC)cc21 (stereo not given in full) | Nuclear receptor coactivator 3 (Homo sapiens) (UniProt Q9Y6Q9) | active |
| CC1CCc2c(sc(NC(=O)CSc3ncn[nH]3)c2C#N)C1 (stereo not given) | Nuclear receptor coactivator 3 (Homo sapiens) (UniProt Q9Y6Q9) | active |
| CC(=O)c1c(C)[nH]c(C(=O)OCC(=O)Nc2ccc(Cl)cc2[N+](=O)[O-])c1C | Nuclear receptor coactivator 3 (Homo sapiens) (UniProt Q9Y6Q9) | inactive |
| Cc1csc(CNc2ncnc3ccc(-c4ccoc4)cc23)c1 | Nuclear receptor coactivator 3 (Homo sapiens) (UniProt Q9Y6Q9) | active |
| COc1ccc(-c2cncnc2-c2ccc(OC)cc2O)cc1 | Nuclear receptor coactivator 3 (Homo sapiens) (UniProt Q9Y6Q9) | active |
| CC(C)COc1ccc(C(=O)Nc2sc3c(c2C(=O)O)CC(C)(C)OC3)cc1 | Nuclear receptor coactivator 3 (Homo sapiens) (UniProt Q9Y6Q9) | active |
| CC(=NNC(=S)Nc1ccccc1)c1ccccn1 | Nuclear receptor coactivator 3 (Homo sapiens) (UniProt Q9Y6Q9) | inactive |

---

Assay: VP16 transactivation reporter inhibitors, counter-screen for LRH-1 inverse agonist project, cell-based, luminescence, high throughput (AID 651615)
Details: Gal4-VP16 luciferase reporter cells, at 3.6 µM, hits give high values
Is inhibition at least 40%? Then YES. If not, NO.

| Molecule | Class Name |
| --- | --- |
| CC(=NNC(=S)N1CC2CCC(CC2)C1)c1ccccn1 | YES |
| CN1CC(=O)N(CC(=O)Nc2ccc(N3CCOCC3)cc2)C1=O | NO |
| Cc1ccc(-c2csc(NC(=O)C3CCN(S(=O)(=O)c4cccs4)CC3)n2)cc1 | YES |
| N=c1c2c(-c3ccccc3)c(-c3ccccc3)n(Cc3ccco3)c2ncn1CCO | YES |
| COc1ccc(/C=C2/CSC/C(=C/c3ccc(OC)c(OC)c3)C2=O)cc1OC | YES |
| O=C(CSc1nc2ccccc2c(=O)n1-c1ccc(Cl)c(Cl)c1)Nc1ccc2c(c1)CCC2 | NO |
| COc1cc(-c2nc(C(=O)NCC3CCCO3)cc3c2[nH]c2ccccc23)cc(OC)c1OC (stereo unspecified) | NO |
| O=C(Nc1ccc2[nH]c(=O)[nH]c2c1)c1ccc([N+](=O)[O-])o1 | NO |
| Cc1ccc(C(=O)C(C(=O)/C=C/c2ccccc2)=C2SCCCS2)cc1 | YES |
| Clc1ccc(-n2ncc3c(NCCN4CCOCC4)ncnc32)cc1 | NO |
| COC(=O)c1ccc(NC(=O)COc2cccc(-n3cnnn3)c2)cc1 | NO |

---

inhibition for assorted molecules
Assay: VP16 transactivation inhibitors, counter-screen for SRC1 inhibitor project, cell-based, luminescence, high throughput (AID 588824)
Conditions: cell-based VP16 transactivation luciferase luminescence; at 3.6 µM; hits give high values

| Molecule | Output Unit | inhibition |
| --- | --- | --- |
| Cc1ccccc1COc1cccc(/C=N/NC(=O)c2nnn(-c3nonc3N)c2C)c1 | % | 18.5 |
| COC(=O)c1cc2ccccn2c2c(C(=O)OC)c(C(=O)OC)cc1-2 | % | -27.2 |
| CCC(C)c1ccc(C(C)NC(=S)NCc2ccc(F)cc2)cc1 (stereo unspecified) | % | -3.56 |
| CCc1c(C#N)sc(C(N)=O)c1CC | % | 13.2 |
| CN(C(=O)c1cccc(NC(=O)Cc2ccc(NC(=O)C3CCCN(C(=O)CCc4ccccc4)C3)cc2)c1)C1CCCCC1 (stereo unspecified) | % | 28 |
| CC12CCC(C(=O)N/N=C/c3ccc(O)cc3O)(OC1=O)C2(C)C (stereo unspecified) | % | 6.4 |

---

Test: StAR promoter reporter inhibitors, counter-screen for LRH-1 inverse agonist project, cell-based, luminescence, high throughput (AID 651611)
Settings: StAR promoter luciferase reporter counterscreen, at 3.6 µM, hits give high values

| Compound | Output Unit | inhibition |
| --- | --- | --- |
| Cc1ccnc2c1ccc1cccnc12 | % | 82.7 |
| CCOc1ccc(NC(=O)COC(=O)CC2CCCCC2)cc1 | % | 9.8 |
| CC1CC(C)C(=O)C(C(CC2CC(=O)NC(=O)C2)OC(=O)CC(=O)c2ccccc2)C1 (stereo not given) | % | 91.6 |
| COc1ccc(CCNC(=O)CN2C(=O)NC3(CCCCC3C)C2=O)cc1 (stereo not given) | % | 3.33 |
| Cc1ccc(-c2cc3cccc[n+]3cc2-c2ccc(C)cc2)cc1 | % | 56.9 |

---

Experiment: StAR promoter reporter inhibitors, counter-screen for LRH-1 inverse agonist project, cell-based, luminescence, high throughput (AID 651611)
Conditions: StAR promoter luciferase reporter counterscreen, at 3.6 µM
Activity calls are given as the source filed them. No stated cut-off is given here; in the data, active means inhibition above about 28%; inactive means the rest.
Labels: true (1) = active, false (0) = inactive

| Molecule | Class Name |
| --- | --- |
| CC(=O)Nc1ccc(NC(=O)COC(=O)Cc2c[nH]c3ccccc23)cc1 | false (0) |
| Cc1ccc(C2CC(C(F)(F)F)n3nc(C(=O)NCc4ccco4)cc3N2)cc1 (stereo unspecified) | false (0) |
| O=C1C=C(NCCc2ccccc2)C2(CCCCC2)O1 | false (0) |
| O=C(Nc1cccc2ccccc12)c1ccc([N+](=O)[O-])o1 | false (0) |
| NC(=O)c1cccc(-c2cnc(N)c(C(=O)c3cccnc3)n2)c1 | true (1) |
| COc1cccc(-c2cnc3c(NC=O)cc(-c4ccc(S(C)(=O)=O)cc4)cn23)c1 | true (1) |
| CCN1C(=O)c2cccc3c(S(=O)(=O)Nc4ccccc4O)ccc1c23 | true (1) |
| O=C1C(Cl)=C(N2CCOCC2)C(=O)N1c1ccc(Br)cc1 | false (0) |
| COc1ccc(OC)c(-n2c(-c3ccc(S(C)(=O)=O)cc3)cc(C=O)c2C)c1 | false (0) |
| CCN(CC)c1nc(C)c(C(C)=O)cc1C#N | false (0) |
| COC(=O)c1ccc(NC(=O)CSc2nnc(C)n2CC2CCCO2)cc1 (stereo unspecified) | false (0) |
